Provide the reported pIC50 of each item.
Target: CDK2/CycE (Homo sapiens)
Construct: GST
Assay: CDK2/CycE kinase assay (TR-FRET)
Details: Method 2, 10 μM ATP
Source text: 2. CDK2/CycE Kinase Assay: CDK2/CycE-inhibitory activity of compounds of the present invention was quantified employing the CDK2/CycE TR-FRET assay as described in the following paragraphs: Recombinant fusion proteins of GST and human CDK2 and of GST and human CycE, expressed in insect cells (Sf9) and purified by Glutathion-Sepharose affinity chromatography, were purchased from ProQinase GmbH (Freiburg, Germany). As substrate for the kinase reaction biotinylated peptide biotin-Ttds-[…] […]
Note on units: pIC50 is unitless, being -log10 of a concentration expressed in mol/L.

For the molecule shown here, `CCCOc1cc(F)ccc1-c1ncnc(Nc2cccc(CS(C)(=O)=O)c2)n1` , give the reported pIC50. 6.07

Name the recorded pIC50 for `CS(=O)(=O)Cc1cccc(Nc2ncnc(-c3ccc(F)cc3OCC3CCC3)n2)c1` . 5.85

Quick one: pIC50 of `CS(=O)(=O)Cc1cccc(Nc2ncnc(-c3ccc(F)cc3OCCF)n2)c1` ? 6.19

Which value of pIC50 has been reported for `Cc1ccc(COc2cc(F)ccc2-c2ncnc(Nc3cccc(CS(C)(=O)=O)c3)n2)cc1` in the records? 5.80

Give its pIC50 value. Item: `COc1cc(F)ccc1-c1ncnc(Nc2cccc(CS(=O)(=O)c3ccccc3)c2)n1` 5.66

Please give the measured pIC50 for this molecule: `CS(=O)(=O)Cc1cccc(Nc2ncnc(-c3cccc4c3OCCC4)n2)c1` 6.29

What does the record list as pIC50 for `CS(=O)(=O)Cc1cccc(Nc2ncnc(-c3ccccc3OC(F)(F)F)n2)c1` ? 5.27

Entry `COc1cc(F)c(F)cc1-c1ncnc(Nc2cccc(CS(C)(=O)=O)c2)n1` : reported pIC50 = ? 6.19

# query: pIC50 of entry `CS(=O)(=O)Cc1cccc(Nc2ncnc(-c3ccc(F)cc3OCCC3CCCC3)n2)c1` 6.02

# query: pIC50 of entry `COc1cc(F)ccc1-c1ncnc(Nc2ccc(F)c(CS(C)(=O)=O)c2)n1` 6.44

Requested read-out: pIC50. Entry: `CS(=O)(=O)Cc1cccc(Nc2ncnc(-c3ccc(F)cc3OCc3cccc(C(F)(F)F)c3)n2)c1` 5.89

Entry under review: `CC(C)S(=O)(=O)Cc1cccc(Nc2ncnc(-c3ccccc3OCc3ccc(F)cc3)n2)c1` . Reported pIC50? 5.60

Which value of pIC50 has been reported for `CS(=O)(=O)Cc1cccc(Nc2ncnc(-c3ccc(F)cc3OCC(F)F)n2)c1` in the records? 5.92

Quick one: pIC50 of `CS(=O)(=O)Cc1cccc(Nc2ncnc(-c3ccc(F)cc3OC3CC3)n2)c1` ? 6.00

Query (molecule): `CS(=O)(=O)Cc1cccc(Nc2ncnc(-c3ccc(F)cc3OCCC3CCCCC3)n2)c1` ; field requested: pIC50 5.13

Need pIC50 of `Cc1cc(COc2cc(F)ccc2-c2ncnc(Nc3cccc(CS(C)(=O)=O)c3)n2)ccn1` , thanks. 6.43

Consider the molecule shown here: `COc1cc(F)ccc1-c1ncnc(Nc2cccc(CS(=O)(=O)C3CC3)c2)n1` What is its recorded pIC50? 5.89

For the molecule shown here, `CS(=O)(=O)Cc1cccc(Nc2ncnc(-c3ccccc3OCc3cccc(Cl)c3)n2)c1` , give the reported pIC50. 6.30

Would you mind telling me what pIC50 value was observed for `CC(C)COc1cc(F)ccc1-c1ncnc(Nc2cccc(CS(C)(=O)=O)c2)n1` ? 5.29

Report pIC50 for `COc1cc(F)ccc1-c1ncnc(Nc2cccc(CS(C)(=O)=O)c2)n1` please. 5.80

Request the reported pIC50 associated with `CS(=O)(=O)Cc1cccc(Nc2ncnc(-c3cc(F)ccc3OCc3cccc(F)c3)n2)c1` 6.48

Quick check: pIC50 of `CS(=O)(=O)Cc1cccc(Nc2ncnc(-c3ccc(F)cc3OCc3cccc(F)c3F)n2)c1` ? 5.70

Which pIC50 value belongs to `COc1cc(Cl)ccc1-c1ncnc(Nc2cccc(CS(C)(=O)=O)c2)n1` ? 5.64

Data request, read-out pIC50, for `CCCCOc1cc(F)ccc1-c1ncnc(Nc2cccc(CS(C)(=O)=O)c2)n1` 6.04

Which measured pIC50 value corresponds to `CS(=O)(=O)Cc1cccc(Nc2ncnc(-c3ccc(F)cc3OCc3cccc(Cl)c3)n2)c1` ? 6.59

What value of measured pIC50 is listed for `COc1cccc(COc2cc(F)ccc2-c2ncnc(Nc3cccc(CS(C)(=O)=O)c3)n2)c1` ? 5.96

# get_value(readout='pIC50', item= `CS(=O)(=O)Cc1cccc(Nc2ncnc(-c3ccc(F)cc3OC3CCC3)n2)c1` ) 5.74

Look up pIC50 for this molecule: `C[C@@H](Oc1cc(F)ccc1-c1ncnc(Nc2cccc(CS(C)(=O)=O)c2)n1)c1ccc(F)cc1` 5.89

Please look up its pIC50: `CS(=O)(=O)Cc1cccc(Nc2ncnc(-c3ccccc3OCc3cccc(F)c3)n2)c1` 6.54

Give its pIC50 value. Item: `CS(=O)(=O)Cc1cccc(Nc2ncnc(-c3ccccc3OCC(F)(F)F)n2)c1` 5.08

Record request: pIC50 value, item `CS(=O)(=O)Cc1cccc(Nc2ncnc(-c3ccc(F)cc3OCCCF)n2)c1` 5.82

Param item = `CS(=O)(=O)Cc1cccc(Nc2ncnc(-c3ccc(Cl)cc3OC3CCCC3)n2)c1` ; retrieve measured pIC50. 4.92
